Entries and their measured pIC50 follow.
Target: Menin/Histone-lysine N-methyltransferase MLL (Homo sapiens, UniProt O00255)
Sequence (O00255 whole entry): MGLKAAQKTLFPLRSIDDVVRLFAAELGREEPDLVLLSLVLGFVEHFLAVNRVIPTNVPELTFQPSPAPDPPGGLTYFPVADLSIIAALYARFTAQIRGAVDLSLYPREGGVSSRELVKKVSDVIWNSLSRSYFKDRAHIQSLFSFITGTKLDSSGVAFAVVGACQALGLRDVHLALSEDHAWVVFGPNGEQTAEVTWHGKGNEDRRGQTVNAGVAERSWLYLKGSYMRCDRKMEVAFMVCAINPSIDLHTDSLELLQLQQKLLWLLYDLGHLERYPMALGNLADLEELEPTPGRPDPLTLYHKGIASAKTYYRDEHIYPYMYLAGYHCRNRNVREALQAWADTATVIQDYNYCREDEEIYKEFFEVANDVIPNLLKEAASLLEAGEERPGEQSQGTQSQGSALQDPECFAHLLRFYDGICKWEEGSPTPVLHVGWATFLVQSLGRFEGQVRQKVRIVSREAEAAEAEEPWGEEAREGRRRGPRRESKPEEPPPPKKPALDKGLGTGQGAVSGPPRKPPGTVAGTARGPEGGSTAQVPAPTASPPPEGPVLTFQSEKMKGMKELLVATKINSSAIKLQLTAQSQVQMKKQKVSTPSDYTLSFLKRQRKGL
Sequence (Q03164 1-2718 partner limits assumed): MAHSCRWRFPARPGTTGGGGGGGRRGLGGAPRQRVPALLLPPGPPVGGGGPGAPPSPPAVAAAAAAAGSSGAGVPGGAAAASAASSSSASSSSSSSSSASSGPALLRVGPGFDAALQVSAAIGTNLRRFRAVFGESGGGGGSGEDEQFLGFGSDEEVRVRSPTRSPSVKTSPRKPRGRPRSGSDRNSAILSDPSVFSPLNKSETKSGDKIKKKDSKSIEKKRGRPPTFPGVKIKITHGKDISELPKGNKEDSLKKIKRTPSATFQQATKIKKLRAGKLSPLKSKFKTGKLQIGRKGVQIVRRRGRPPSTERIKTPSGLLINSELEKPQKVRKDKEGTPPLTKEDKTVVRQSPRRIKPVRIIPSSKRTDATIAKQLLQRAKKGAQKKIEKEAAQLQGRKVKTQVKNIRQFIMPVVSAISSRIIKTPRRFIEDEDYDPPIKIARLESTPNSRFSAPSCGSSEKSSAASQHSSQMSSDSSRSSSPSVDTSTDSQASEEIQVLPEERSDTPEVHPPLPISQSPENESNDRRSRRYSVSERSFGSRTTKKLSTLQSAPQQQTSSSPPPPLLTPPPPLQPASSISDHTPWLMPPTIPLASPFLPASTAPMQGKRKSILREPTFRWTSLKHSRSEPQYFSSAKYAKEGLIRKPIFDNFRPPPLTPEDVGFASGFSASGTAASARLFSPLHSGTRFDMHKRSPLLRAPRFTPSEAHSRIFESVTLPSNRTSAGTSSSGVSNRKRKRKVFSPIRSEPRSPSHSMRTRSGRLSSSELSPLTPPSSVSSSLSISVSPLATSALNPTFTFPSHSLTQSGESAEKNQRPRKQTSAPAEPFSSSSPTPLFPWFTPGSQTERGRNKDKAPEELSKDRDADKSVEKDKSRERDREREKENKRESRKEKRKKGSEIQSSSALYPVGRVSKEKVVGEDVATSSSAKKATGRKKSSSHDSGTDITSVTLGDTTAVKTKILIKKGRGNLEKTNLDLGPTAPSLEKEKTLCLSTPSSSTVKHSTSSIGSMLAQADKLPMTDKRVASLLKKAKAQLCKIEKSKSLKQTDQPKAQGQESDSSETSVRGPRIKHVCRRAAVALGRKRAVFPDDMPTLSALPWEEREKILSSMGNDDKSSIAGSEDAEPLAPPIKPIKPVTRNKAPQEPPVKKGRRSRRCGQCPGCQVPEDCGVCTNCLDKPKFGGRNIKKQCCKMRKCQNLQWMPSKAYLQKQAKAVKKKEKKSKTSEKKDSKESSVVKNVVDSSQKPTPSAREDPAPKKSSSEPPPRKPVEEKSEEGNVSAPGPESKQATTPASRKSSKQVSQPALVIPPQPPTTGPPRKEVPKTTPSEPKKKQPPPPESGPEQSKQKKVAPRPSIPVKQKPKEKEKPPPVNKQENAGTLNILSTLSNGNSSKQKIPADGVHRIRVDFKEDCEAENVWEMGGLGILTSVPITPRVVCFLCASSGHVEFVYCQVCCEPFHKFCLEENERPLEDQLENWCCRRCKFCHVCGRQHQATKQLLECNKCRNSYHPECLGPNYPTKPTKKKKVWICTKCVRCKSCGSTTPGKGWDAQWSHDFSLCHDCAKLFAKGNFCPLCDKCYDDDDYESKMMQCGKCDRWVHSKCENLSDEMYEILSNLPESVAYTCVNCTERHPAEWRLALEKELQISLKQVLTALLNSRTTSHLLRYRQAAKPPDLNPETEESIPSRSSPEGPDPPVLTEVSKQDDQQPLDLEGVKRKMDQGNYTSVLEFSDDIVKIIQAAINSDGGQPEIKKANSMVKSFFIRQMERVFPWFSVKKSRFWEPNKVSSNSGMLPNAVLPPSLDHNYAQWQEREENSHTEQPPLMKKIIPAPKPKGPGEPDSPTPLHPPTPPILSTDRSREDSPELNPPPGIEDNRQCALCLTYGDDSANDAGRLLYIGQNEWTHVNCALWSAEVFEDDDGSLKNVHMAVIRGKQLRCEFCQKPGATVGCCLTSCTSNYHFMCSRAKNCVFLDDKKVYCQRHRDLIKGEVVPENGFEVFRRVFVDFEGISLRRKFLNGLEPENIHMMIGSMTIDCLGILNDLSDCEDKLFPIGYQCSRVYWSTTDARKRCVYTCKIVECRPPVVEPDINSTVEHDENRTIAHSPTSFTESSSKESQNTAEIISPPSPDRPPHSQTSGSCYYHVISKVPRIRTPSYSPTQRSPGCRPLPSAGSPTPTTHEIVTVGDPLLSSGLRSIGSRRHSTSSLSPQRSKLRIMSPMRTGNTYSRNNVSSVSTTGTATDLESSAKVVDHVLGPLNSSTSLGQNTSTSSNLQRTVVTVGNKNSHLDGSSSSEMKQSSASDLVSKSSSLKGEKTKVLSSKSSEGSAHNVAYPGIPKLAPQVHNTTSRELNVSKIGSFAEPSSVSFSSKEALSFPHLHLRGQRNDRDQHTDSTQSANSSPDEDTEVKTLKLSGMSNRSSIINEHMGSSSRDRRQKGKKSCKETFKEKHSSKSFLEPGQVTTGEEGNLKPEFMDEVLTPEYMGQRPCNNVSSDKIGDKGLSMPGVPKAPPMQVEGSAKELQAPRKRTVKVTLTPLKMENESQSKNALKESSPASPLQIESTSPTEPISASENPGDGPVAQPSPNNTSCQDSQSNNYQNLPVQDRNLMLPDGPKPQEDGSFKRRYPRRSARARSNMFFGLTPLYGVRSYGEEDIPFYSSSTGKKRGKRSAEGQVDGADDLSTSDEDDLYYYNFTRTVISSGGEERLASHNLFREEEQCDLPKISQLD
Sequence (Q03164 2719-3969 partner limits assumed): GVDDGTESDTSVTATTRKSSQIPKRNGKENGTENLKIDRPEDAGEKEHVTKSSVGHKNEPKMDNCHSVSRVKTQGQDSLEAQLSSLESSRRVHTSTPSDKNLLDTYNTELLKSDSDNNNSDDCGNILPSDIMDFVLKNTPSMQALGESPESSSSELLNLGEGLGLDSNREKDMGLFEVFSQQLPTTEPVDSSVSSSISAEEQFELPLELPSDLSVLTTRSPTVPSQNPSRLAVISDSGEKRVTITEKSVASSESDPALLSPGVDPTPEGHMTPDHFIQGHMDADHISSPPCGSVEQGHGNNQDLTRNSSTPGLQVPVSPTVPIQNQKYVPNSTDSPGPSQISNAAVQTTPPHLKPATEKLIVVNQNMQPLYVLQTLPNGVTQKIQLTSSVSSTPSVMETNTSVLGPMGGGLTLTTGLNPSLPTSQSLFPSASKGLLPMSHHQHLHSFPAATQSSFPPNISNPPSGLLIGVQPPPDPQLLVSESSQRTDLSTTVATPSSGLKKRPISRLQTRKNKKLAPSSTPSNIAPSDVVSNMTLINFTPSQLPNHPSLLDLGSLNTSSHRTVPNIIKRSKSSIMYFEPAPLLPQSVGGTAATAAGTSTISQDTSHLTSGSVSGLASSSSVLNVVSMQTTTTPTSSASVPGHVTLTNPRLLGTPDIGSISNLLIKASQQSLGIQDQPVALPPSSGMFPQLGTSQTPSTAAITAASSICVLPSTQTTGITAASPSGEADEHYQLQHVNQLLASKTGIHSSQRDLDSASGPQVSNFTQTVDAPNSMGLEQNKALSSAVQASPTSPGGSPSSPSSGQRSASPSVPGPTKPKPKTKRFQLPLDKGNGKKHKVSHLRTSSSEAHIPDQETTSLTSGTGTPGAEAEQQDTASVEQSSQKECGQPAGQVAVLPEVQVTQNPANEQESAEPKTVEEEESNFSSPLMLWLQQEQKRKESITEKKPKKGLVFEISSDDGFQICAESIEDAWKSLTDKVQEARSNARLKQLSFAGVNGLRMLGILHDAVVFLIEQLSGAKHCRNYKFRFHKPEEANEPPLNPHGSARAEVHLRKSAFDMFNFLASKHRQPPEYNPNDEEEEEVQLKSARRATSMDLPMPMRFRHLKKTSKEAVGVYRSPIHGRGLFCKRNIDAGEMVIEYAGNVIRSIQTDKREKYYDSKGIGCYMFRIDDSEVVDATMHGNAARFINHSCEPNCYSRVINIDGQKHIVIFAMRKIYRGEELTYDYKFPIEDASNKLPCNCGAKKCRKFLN
Assay: Inhibition of menin-MLL interaction (unknown origin) after 1 hr by fluorescence polarization assay
pIC50: −log10 of the molar value.

{"Compound": "Cc1c(CN2CCC(Nc3ncnc4sc(CC(F)(F)F)cc34)CC2)c(O)cc2c1cc(C#N)n2Cc1c[nH]nn1", "Study Target": "Menin/Histone-lysine N-methyltransferase MLL (Homo sapiens, UniProt O00255)", "pIC50": 7.77}
{"Compound": "N#Cc1cc2cc(CN3CCC(Nc4ncnc5sc(CC(F)(F)F)cc45)CC3)ccc2n1C[C@H](O)CO", "Study Target": "Menin/Histone-lysine N-methyltransferase MLL (Homo sapiens, UniProt O00255)", "pIC50": 7.38}
{"Compound": "CC(C(N)=O)n1c(C#N)cc2cc(CN3CCC(Nc4ncnc5sc(CC(F)(F)F)cc45)CC3)ccc21 (stereo not given)", "Study Target": "Menin/Histone-lysine N-methyltransferase MLL (Homo sapiens, UniProt O00255)", "pIC50": 6.61}
{"Compound": "N#Cc1cc2cc(CN3CCC(Nc4ncnc5sc(CC(F)(F)F)cc45)CC3)ccc2n1Cc1c[nH]nn1", "Study Target": "Menin/Histone-lysine N-methyltransferase MLL (Homo sapiens, UniProt O00255)", "pIC50": 7.57}
{"Compound": "N#Cc1cc2cc(CN3CCC(Nc4ncnc5sc(CC(F)(F)F)cc45)CC3)ccc2n1Cc1cn[nH]c1", "Study Target": "Menin/Histone-lysine N-methyltransferase MLL (Homo sapiens, UniProt O00255)", "pIC50": 7.64}
{"Compound": "N#Cc1[nH]c2ccc(CN3CCC(Nc4ncnc5sc(CC(F)(F)F)cc45)CC3)cc2c1F", "Study Target": "Menin/Histone-lysine N-methyltransferase MLL (Homo sapiens, UniProt O00255)", "pIC50": 7.02}
{"Compound": "N#Cc1cc2c(Cl)c(CN3CCC(Nc4ncnc5sc(CC(F)(F)F)cc45)CC3)ccc2[nH]1", "Study Target": "Menin/Histone-lysine N-methyltransferase MLL (Homo sapiens, UniProt O00255)", "pIC50": 7.66}
{"Compound": "N#Cc1cc2cc(CN3CCC(Nc4ncnc5sc(CC(F)(F)F)cc45)CC3)ccc2n1C[C@@H](O)CO", "Study Target": "Menin/Histone-lysine N-methyltransferase MLL (Homo sapiens, UniProt O00255)", "pIC50": 7.34}
{"Compound": "CO[C@H](CO)Cn1c(C#N)cc2cc(CN3CCC(Nc4ncnc5sc(CC(F)(F)F)cc45)CC3)ccc21", "Study Target": "Menin/Histone-lysine N-methyltransferase MLL (Homo sapiens, UniProt O00255)", "pIC50": 7.43}
{"Compound": "Cc1c(CN2CCC(Nc3ncnc4sc(CC(F)(F)F)cc34)CC2)c(O)cc2[nH]c(C#N)cc12", "Study Target": "Menin/Histone-lysine N-methyltransferase MLL (Homo sapiens, UniProt O00255)", "pIC50": 7.57}

###

Test: Half life in CD-1 mouse liver microsomes at 1 uM after 3 to 60 mins by LC-MS/MS analysis
Format: ADME

{"Smiles Code": "N#Cc1cc2cc(CN3CCC(Nc4ncnc5sc(CC(F)(F)F)cc45)CC3)ccc2n1Cc1cn[nH]c1", "Unit Name": "min", "Modifier Sign": "=", "t1/2": 8.3}
{"Smiles Code": "Cc1c(CN2CCC(Nc3ncnc4sc(CC(F)(F)F)cc34)CC2)ccc2c1cc(C#N)n2Cc1c[nH]nn1", "Unit Name": "min", "Modifier Sign": "=", "t1/2": 59}
{"Smiles Code": "Cc1c(CN2CCC(Nc3ncnc4sc(CC(F)(F)F)cc34)CC2)c(O)cc2[nH]c(C#N)cc12", "Unit Name": "min", "Modifier Sign": "=", "t1/2": 56}
{"Smiles Code": "N#Cc1cc2cc(CN3CCC(Nc4ncnc5sc(CC(F)(F)F)cc45)CC3)ccc2n1CCO", "Unit Name": "min", "Modifier Sign": "=", "t1/2": 18}
{"Smiles Code": "N#Cc1cc2cc(CN3CCC(Nc4ncnc5sc(CC(F)(F)F)cc45)CC3)c(F)cc2[nH]1", "Unit Name": "min", "Modifier Sign": "=", "t1/2": 9}
{"Smiles Code": "N#Cc1cc2cc(CN3CCC(Nc4ncnc5sc(CC(F)(F)F)cc45)CC3)ccc2[nH]1", "Unit Name": "min", "Modifier Sign": "=", "t1/2": 6.8}
{"Smiles Code": "COc1cc2c(cc(C#N)n2CC(N)=O)c(C)c1CN1CCC(Nc2ncnc3sc(CC(F)(F)F)cc23)CC1", "Unit Name": "min", "Modifier Sign": ">", "t1/2": 60}
{"Smiles Code": "Cc1c(CN2CCC(Nc3ncnc4sc(CC(F)(F)F)cc34)CC2)c(O)cc2c1cc(C#N)n2Cc1c[nH]nn1", "Unit Name": "min", "Modifier Sign": "=", "t1/2": 25}
